test: Rh110 fluorescence interference by putative Apaf-1 inhibitors, confirmation, artefact control for Apaf-1 inhibitor project, biochemical, 20 µM (AID 504615); settings: quenched caspase reaction, at 20 µM, stronger effect = higher value
The other results are listed elsewhere or left out.
Readout label: activation (fluorescence interference) (%)
Give the value in % but do not write % after it.

[Q] Indicate the recorded activation (fluorescence interference) value for this molecule: Cc1oc2c(c1C(=O)N1CCOCC1)C(=O)c1ccccc1C2=O
[A] 8.76

[Q] Indicate the recorded activation (fluorescence interference) value for this molecule: CCN1C(=NCc2ccc(OC)cc2)N[C@@H](CCc2ccccc2)[C@H](C(=O)NCc2ccc(OC)cc2)[C@H]1C
[A] 7.82

[Q] Indicate the recorded activation (fluorescence interference) value for this molecule: NC(N)=N/N=C/c1ccc(OCc2ccc(Cl)cc2Cl)cc1
[A] -0.23

[Q] Indicate the recorded activation (fluorescence interference) value for this molecule: C#CCOCCOCCOCCNc1nc(N2CCN(C(=O)CCCCCCCCCCNC(=O)Cn3cc(CCCCCN)nn3)CC2)nc(N2CCN(C(=O)CCCCCCCCCCNC(=O)[C@H](CO)n3cc(CCCSC)nn3)CC2)n1
[A] 4.21

[Q] Indicate the recorded activation (fluorescence interference) value for this molecule: COc1ccccc1C1C(C#N)=C(N)Oc2c1c(-c1ccccc1)nn2-c1ccccc1 (centres undefined)
[A] 5.51

[Q] Indicate the recorded activation (fluorescence interference) value for this molecule: c1ccc2c(CCN3CCNC[C@H]3Cc3cccc4ccccc34)cccc2c1
[A] 8.34

----------
# inhibition per entry
assay: inhibitors of PAF-induced NFkB signaling in CF airway cells, dose response, cell-based, uHTS hits, panel, cytotoxicity readout (AID 624344); settings: CF bronchial epithelial cells, PAF-induced NFkB reporter inhibition, with PAF, run 2; at 79 µM (top of the series) unless noted
Give the value in % but do not write % after it.

> print(dat)
                                   compound  units.symbol  value.measured
1               Brc1ccc2ncnc(NCc3ccco3)c2c1             %             105
2  CC(C)C[C@@H](CN1CCCC1CN1C(=S)NC[C@@H]1Cc1ccc(O)cc1)N1C[C@H](Cc2ccc(O)cc2)N(CCc2ccccc2)C1=S (some centres not stated)             %             101
3  COc1cccc(CN(C)C(=O)C(CCSC)NS(=O)(=O)c2ccc3c(c2)OCCO3)c1OC (configuration not stated)             %             106
4         Cc1nnc(NC(=O)Nc2ccc(Cl)c(Cl)c2)s1             %            87.1
5  CC(=O)OCCCNc1cc(Sc2ccc(Cl)cc2)c2nonc2c1[N+](=O)[O-]             %             113
6    O=c1[nH]nc(Sc2ncnc3sccc23)n1CCc1ccccc1             %             105
7    COc1cccc(-c2ccc3ncnc(NCc4cccs4)c3c2)c1             %            99.9
8      Nc1nc(/C=C/c2cccnc2)nc(-c2ccccc2O)n1             %             110

--- query ---
[Q] Indicate the recorded inhibition value for this compound: Cc1nn(-c2nccs2)c2c1C(=O)CC(C)(C)C2Br (configuration not stated)
[A] 115
